Molecular target: T1, HLA-A*0201 loaded with the Carcinoembryonic antigen (CEA)-derived … peptide (biotin on the C-terminal biotinylation tag)
T1 construct: Soluble, biotinylated, immobilised on a streptavidin chip
Test: Biacore SPR
testReadout: Kd

• SEQ ID NO 24 (receptor, mutated soluble two domain ILT-2) MHLPKPTLWAEPGSVITLQSPVTLRCQGGQETQQYRLYREKKTAPWITRIPQELVKKGQFPIPSITWEHAGRYRCYYGSDTRQWSASSDPLELVVTGVYIKPTLSAQPSPVVNSGGNVTLQCDSQVAFDGFILCKEGEDDHPQCLNSQPHARGSSRAIFSVGPVSPSRRWRYRCYAYPIWTPYEWSLPSDLLELDVDG = ≤ 1000 nM

Request: Give a short answer stating reported Kd for SEQ ID NO 37 (receptor, mutated soluble two domain ILT-2) MGHLPKPTLWAEPGSVITMDQPVTLRCQGGQETQEYRLYREKKTAPWITRIPQELVKKGQFPIPSITWEHAGRYRCYYGSDTAGRSESSDPLELVVTGVYIKPTLSAQPSPVVNSGGNVTLQCDSQVAFDGFILCKEGEDEHPQCLNSQPHARGSSRAIFSVGPVSPSRRWWYRCYAYPAWTPYEWSLPSDLLELDVDG .
Response: ≤ 1000 nM

Request: Supply recorded Kd for SEQ ID NO 121 (receptor, mutated soluble two domain ILT-2) MHLPKPTLWAEPGSVITMDQPVTLRCQGGQETQEYRLYREKKTAPWITRIPQELVKKGQFPIPSITWEHAGRYRCYYGGQEGARSESSDPLELVVTGVYIKPTLSAQPSPVVNSGGNVTLQCDSQVAFDGFILCKEGEDEHPQCLNSQPHARGSSRAIFSVGPVSPSRRWWYRCYAYDSNSPYEWSLPSDLLELDVDG here.
Response: ≤ 1000 nM
